experiment: In vitro microsomal metabolic stability, human liver microsomes; assay type: in vitro ADME; conditions: Human liver microsomes, without NADPH regenerating system, 60 min
observationType: Remaining (T = NCF60 min) (%)
Give the value, in units of %, as a plain number.

# molecule, displayUnit, Remaining (T = NCF60 min)
data = [
    ("COCCN(c1ccccc1)C1C[C@@H]2CC[C@@H](C)[C@@](O)(O2)C(=O)C(=O)N2CCCC[C@H]2C(=O)OC([C@H](C)CC2CC[C@@H](O)C(OC)C2)CC[C@H](C)/C=C(\\C)C(O)C(OC)C(=O)[C@H](C)C[C@H](C)/C=C/C=C/C=C/1C (stereo partly shown)", "%", 115),
    ("CO[C@@H]1CC(C[C@@H](C)[C@@H]2CC[C@H](C)/C=C(\\C)[C@@H](O)[C@@H](OC)C(=O)[C@H](C)C[C@H](C)/C=C/C=C/C=C(\\C)C(Nc3ccccc3)CC3CC[C@@H](C)[C@@](O)(O3)C(=O)C(=O)N3CCCC[C@H]3C(=O)O2)CC[C@H]1O (stereo partly shown)", "%", 92.80),
    ("CCOc1cccc(NC2C[C@@H]3CC[C@@H](C)[C@@](O)(O3)C(=O)C(=O)N3CCCCC3C(=O)O[C@H]([C@H](C)C[C@@H]3CC[C@@H](O)[C@H](OC)C3)CC[C@H](C)/C=C(\\C)[C@@H](O)[C@@H](OC)C(=O)[C@H](C)C[C@H](C)/C=C/C=C/C=C/2C)c1 (stereo partly shown)", "%", 102),
    ("CO[C@@H]1C[C@H](C[C@@H](C)[C@@H]2CC[C@H](C)/C=C(\\C)[C@@H](O)[C@@H](OC)C(=O)[C@H](C)C[C@H](C)/C=C/C=C/C=C(\\C)C(Nc3cnon3)C[C@@H]3CC[C@@H](C)[C@@](O)(O3)C(=O)C(=O)N3CCCCC3C(=O)O2)CC[C@H]1O (stereo partly shown)", "%", 71.30),
    ("CO[C@@H]1C[C@H](C[C@@H](C)[C@@H]2CC[C@H](C)/C=C(\\C)[C@@H](O)[C@@H](OC)C(=O)[C@H](C)C[C@H](C)/C=C/C=C/C=C(\\C)C(Nc3ccsc3)C[C@@H]3CC[C@@H](C)[C@@](O)(O3)C(=O)C(=O)N3CCCCC3C(=O)O2)CC[C@H]1O (stereo partly shown)", "%", 99),
]

INPUT: Look up and state reported Remaining (T = NCF60 min) for CO[C@H]1C[C@@H]2CC[C@@H](C)[C@@](O)(O2)C(=O)C(=O)N2CCCC[C@H]2C(=O)O[C@H]([C@H](C)C[C@@H]2CC[C@@H](OCCO)[C@H](OC)C2)CC(=O)[C@H](C)/C=C(\C)[C@@H](O)[C@@H](OC)C(=O)[C@H](C)C[C@H](C)/C=C/C=C/C=C/1C [RAD001, everolimus, reference compound]
OUTPUT: 120

INPUT: Look up and state reported Remaining (T = NCF60 min) for CO[C@@H]1C[C@H](C[C@@H](C)[C@@H]2CC[C@H](C)/C=C(\C)[C@@H](O)[C@@H](OC)C(=O)[C@H](C)C[C@H](C)/C=C/C=C/C=C(\C)C(NS(=O)(=O)c3cnoc3C)C[C@@H]3CC[C@@H](C)[C@@](O)(O3)C(=O)C(=O)N3CCCCC3C(=O)O2)CC[C@H]1O (stereo partly shown)
OUTPUT: 89
